Where do these numbers come from? They come from paper PMC5030626.

Target desc: Protein A, recombinant (P7837) (Staphylococcus aureus, UniProt P02976 37-327)
Assay text: ELONA; ELONA and bead assay: 100 mM NaCl, 20 mM Tris-HCl pH 7.6, 10 mM MgCl2, 5 mM KCl, 1 mM CaCl2, 0.005% Tween 20, 21 C; CD: 25 mM Britton-Robinson pH 7.6, 100 mM NaCl, 10 mM MgCl2, 1 mM CaCl2, 5 mM KCl
Measurement parameters: protein: recombinant; label: 5'-biotin; G4 plus 5' imperfect hairpin
Quantity measured: pKd
Lab note — pKd values are minus log10 of concentrations in M.

Returns the measured pKd for the input binder. Input: PA#2/8[S1-58] (5'Bio) (structured_DNA) DNA: ATACCAGCTTATTCAATTAGCAACATGAGGGGGATAGAGGGGGTGGGTTCTCTCGGCT 7.63
